These entries and their values trace back to patent US20070219191A1.

# System: H. influenzae ATCC49766
MIC values, listed per item

For orientation, consider the following solved cases.
                                   molecule            system_tested       result
0  CC(C)(O/N=C(\C(=O)NC1C(=O)N2C(C(=O)[O-])=C(C[n+]3cccc4c3nc(N)n4C3CCNCC3)CSC12)c1nsc(N)n1)C(=O)O (stereo not shown)  H. influenzae ATCC49766  0.032 µg/mL
1  C[C@H](N)CCn1c(N)nc2c1ccc[n+]2CC1=C(C(=O)[O-])N2C(=O)C(NC(=O)/C(=N\OC(C)(C)C(=O)O)c3nsc(N)n3)C2SC1 (stereo partly shown)  H. influenzae ATCC49766  0.032 µg/mL

Record CC(C)(O/N=C(\C(=O)NC1C(=O)N2C(C(=O)[O-])=C(C[n+]3ccc(NC4CCNC4)cc3)CSC12)c1nsc(N)n1)C(=O)O (stereo not shown) has H. influenzae ATCC49766 MIC equal to 0.063 µg/mL

Reported H. influenzae ATCC49766 MIC for item Cc1c(N)[nH]c2ccc[n+](CC3=C(C(=O)[O-])N4C(=O)C(NC(=O)/C(=N\OC(C)(C)C(=O)O)c5nsc(N)n5)C4SC3)c12 (stereo not shown) was 0.016 µg/mL
